Catalogue of molecules with associated inhibition at 33.33 µM
# Tested on: MDA-MB-436 (a BRCA-1-mutated breast cancer cell line)
# assay-remarks: Cell proliferation assay, three-day, CellTiter-Glo, MDA-MB-436
# Assay type: cell-based
# test-context: Homo sapiens, MDA-MB-436, MDA-MB-436, Conc. 33.33 uM, replicate 1; read-out: Inh % 1

molecule: NC(=O)c1cccc2[nH]c(C3CCN(CCCC(=O)c4ccccc4)C3)nc12 (stereo not shown)
inhibition at 33.33 µM [%]: 62

molecule: COc1ccc(C(=O)CCN2CCC(c3nc4c(C(N)=O)cccc4[nH]3)C2)cc1 (stereo not shown)
inhibition at 33.33 µM [%]: 7.8

molecule: NC(=O)c1cccc2[nH]c(C3CCN(CCN4C(=O)c5ccccc5C4=O)C3)nc12 (stereo not shown)
inhibition at 33.33 µM [%]: -6.4

molecule: C[C@]1(c2nc3c(C(N)=O)cccc3[nH]2)CCCN1 [pc1, Veliparib, reference compound]
inhibition at 33.33 µM [%]: 11.6

molecule: NCCCN1CCC(c2nc3c(C(N)=O)cccc3[nH]2)C1 (stereo not shown)
inhibition at 33.33 µM [%]: 1.9

molecule: NC(=O)c1cccc2[nH]c(C3CCN(CCCNc4ccccc4)C3)nc12 (stereo not shown)
inhibition at 33.33 µM [%]: 3.2

molecule: NC(=O)c1cccc2[nH]c(C3CCN(CCC(=O)c4ccc(Cl)cc4)C3)nc12 (stereo not shown)
inhibition at 33.33 µM [%]: 93.8

molecule: NC(=O)c1cccc2[nH]c(C3CCN(CCC(=O)c4ccccc4)C3)nc12 (stereo not shown)
inhibition at 33.33 µM [%]: 91.6

molecule: NC(=O)c1cccc2[nH]c(C3CCN(CCCNC(=O)c4ccccc4)C3)nc12 (stereo not shown)
inhibition at 33.33 µM [%]: 12.1

molecule: O=C(c1cc(Cc2n[nH]c(=O)c3ccccc23)ccc1F)N1CCN(C(=O)C2CC2)CC1 [pc2, Olaparib, reference compound]
inhibition at 33.33 µM [%]: 50.1

molecule: NCCN1CCC(c2nc3c(C(N)=O)cccc3[nH]2)C1 (stereo not shown)
inhibition at 33.33 µM [%]: 3

molecule: NC(=O)c1cccc2[nH]c(C3CCN(CC(=O)c4ccccc4)C3)nc12 (stereo not shown)
inhibition at 33.33 µM [%]: 35.4

molecule: NC(=O)c1cccc2[nH]c(C3CCN(CCCN4C(=O)c5ccccc5C4=O)C3)nc12 (stereo not shown)
inhibition at 33.33 µM [%]: -10.9

molecule: NC(=O)c1cccc2[nH]c(C3CCN(CCC(=O)Nc4ccccc4)C3)nc12 (stereo not shown)
inhibition at 33.33 µM [%]: 9.7

molecule: NC(=O)c1cccc2[nH]c(C3CCN(CCNC(=O)c4ccccc4)C3)nc12 (stereo not shown)
inhibition at 33.33 µM [%]: 15.5

molecule: NC(=O)c1cccc2[nH]c(C3CCN(CC(O)c4ccccc4)C3)nc12 (stereo not shown)
inhibition at 33.33 µM [%]: 17.3

----------
# System: MDA-MB-436 (a BRCA-1-mutated breast cancer cell line)
# assay-remarks: Cell proliferation assay, three-day, CellTiter-Glo, MDA-MB-436
# Format: cell-based
# test-context: Homo sapiens, MDA-MB-436; 72 h, CellTiter-Glo; read-out: MDA-MB-436 IC50
pIC50: −log10 of the molar value.
Catalogue of molecules with associated pIC50

molecule: C[C@]1(c2nc3c(C(N)=O)cccc3[nH]2)CCCN1 [pc1, Veliparib, reference compound]
pIC50: < 4.00
//
molecule: NC(=O)c1cccc2[nH]c(C3CCN(CC(=O)Nc4ccccc4)C3)nc12 (stereo not shown) [Compound 5ca]
pIC50: 4.64
//
molecule: NC(=O)c1cccc2[nH]c(C3CCN(CCCNC(=O)c4ccccc4)C3)nc12 (stereo not shown) [Compound 5cn]
pIC50: < 4.00
//
molecule: NCCN1CCC(c2nc3c(C(N)=O)cccc3[nH]2)C1 (stereo not shown) [Compound 5cm]
pIC50: < 4.00

----------
Catalogue of compounds with associated IC50
# Test system: CAPAN-1 (a BRCA-2-mutated pancreatic cancer cell line)
# assay-remarks: Cell proliferation assay, three-day, CellTiter-Glo, CAPAN-1
# Assay type: cell-based
# test-context: Homo sapiens; CAPAN-1, 72 h, supplement Summary sheet; read-out: IC50
# Experimental: A three-day assay was conducted. A cell suspension was prepared. Cell density was counted by an automated cell counter and then diluted to the required density, according to seeding density. 50 μL cells were seeded into 384-well plate in growth medium according to the plate map. The cells were incubated at 37 °C, 5% CO2 overnight. […] The assay plate was equilibrated to room temperature prior to measurement. […] Luminescence was recorded on the Envision system.

compound: NC(=O)c1cccc2[nH]c(C3CCN(CCCC(=O)c4ccccc4)C3)nc12 (centres unmarked) [Compound 5cc]
study-system: CAPAN-1 (a BRCA-2-mutated pancreatic cancer cell line)
IC50, µM: 20.7
--
compound: NC(=O)c1cccc2[nH]c(C3CCN(CCC(=O)c4ccccc4)C3)nc12 (centres unmarked) [Compound 5cp]
study-system: CAPAN-1 (a BRCA-2-mutated pancreatic cancer cell line)
IC50, µM: 15.5
--
compound: NC(=O)c1cccc2[nH]c(C3CCN(CC(=O)c4ccccc4)C3)nc12 (centres unmarked) [Compound 5cd]
study-system: CAPAN-1 (a BRCA-2-mutated pancreatic cancer cell line)
IC50, µM: 82.5
--
compound: NC(=O)c1cccc2[nH]c(C3CCN(CCC(=O)c4ccc(Cl)cc4)C3)nc12 (centres unmarked) [Compound 5cj]
study-system: CAPAN-1 (a BRCA-2-mutated pancreatic cancer cell line)
IC50, µM: 11.4
--
compound: COc1ccc(C(=O)CCN2CCC(c3nc4c(C(N)=O)cccc4[nH]3)C2)cc1 (centres unmarked) [Compound 5ci]
study-system: CAPAN-1 (a BRCA-2-mutated pancreatic cancer cell line)
IC50, µM: 48.1

----------
# Tested on: CAPAN-1 (a BRCA-2-mutated pancreatic cancer cell line)
# assay-remarks: Cell proliferation assay, three-day, CellTiter-Glo, CAPAN-1
# Type: cell-based
# test-context: Homo sapiens; CAPAN-1, 33.33 uM, replicate 2; read-out: Inh % 2
Catalogue of compounds with associated inhibition at 33.33 µM

compound: NC(=O)c1cccc2[nH]c(C3CCN(CC(O)c4ccccc4)C3)nc12 (stereo not drawn)
unit: %
inhibition at 33.33 µM: -1.9
//
compound: NC(=O)c1cccc2[nH]c(C3CCN(CC(=O)c4ccccc4)C3)nc12 (stereo not drawn)
unit: %
inhibition at 33.33 µM: 8.7
//
compound: COc1ccc(C(=O)CCN2CCC(c3nc4c(C(N)=O)cccc4[nH]3)C2)cc1 (stereo not drawn)
unit: %
inhibition at 33.33 µM: 18.7
//
compound: NC(=O)c1cccc2[nH]c(C3CCN(CCC(=O)Nc4ccccc4)C3)nc12 (stereo not drawn)
unit: %
inhibition at 33.33 µM: 21.6
//
compound: NC(=O)c1cccc2[nH]c(C3CCN(CCCN4C(=O)c5ccccc5C4=O)C3)nc12 (stereo not drawn)
unit: %
inhibition at 33.33 µM: 3.9
//
compound: NC(=O)c1cccc2[nH]c(C3CCN(CCN4C(=O)c5ccccc5C4=O)C3)nc12 (stereo not drawn)
unit: %
inhibition at 33.33 µM: 4.4
//
compound: NC(=O)c1cccc2[nH]c(C3CCN(CCCC(=O)c4ccccc4)C3)nc12 (stereo not drawn)
unit: %
inhibition at 33.33 µM: 86.5
//
compound: NC(=O)c1cccc2[nH]c(C3CCN(CCC(=O)c4ccc(Cl)cc4)C3)nc12 (stereo not drawn)
unit: %
inhibition at 33.33 µM: 96.8
//
compound: NC(=O)c1cccc2[nH]c(C3CCN(CCCNc4ccccc4)C3)nc12 (stereo not drawn)
unit: %
inhibition at 33.33 µM: 20.6

----------
# Tested on: CAPAN-1 (a BRCA-2-mutated pancreatic cancer cell line)
# assay-remarks: Cell proliferation assay, three-day, CellTiter-Glo, CAPAN-1
# Type: cell-based
# test-context: Homo sapiens; CAPAN-1, Conc. 3.70 uM, replicate 2; read-out: Inh % 2

molecule: NCCCN1CCC(c2nc3c(C(N)=O)cccc3[nH]2)C1 (stereo not shown) [Compound 5cl]
inhibition at 3.7 µM, %: -3

molecule: NC(=O)c1cccc2[nH]c(C3CCN(CCC(=O)c4ccccc4)C3)nc12 (stereo not shown) [Compound 5cp]
inhibition at 3.7 µM, %: -0.7

molecule: NC(=O)c1cccc2[nH]c(C3CCN(CCCNC(=O)c4ccccc4)C3)nc12 (stereo not shown) [Compound 5cn]
inhibition at 3.7 µM, %: -3

molecule: O=C(c1cc(Cc2n[nH]c(=O)c3ccccc23)ccc1F)N1CCN(C(=O)C2CC2)CC1 [pc2, Olaparib, reference compound]
inhibition at 3.7 µM, %: 11.6

molecule: NCCN1CCC(c2nc3c(C(N)=O)cccc3[nH]2)C1 (stereo not shown) [Compound 5cm]
inhibition at 3.7 µM, %: 2.3

molecule: C[C@]1(c2nc3c(C(N)=O)cccc3[nH]2)CCCN1 [pc1, Veliparib, reference compound]
inhibition at 3.7 µM, %: -16.7

molecule: NC(=O)c1cccc2[nH]c(C3CCN(CCNC(=O)c4ccccc4)C3)nc12 (stereo not shown) [Compound 5co]
inhibition at 3.7 µM, %: 11.1
